Reference source for all entries: patent US5840697A

Measured target: phosphodiesterase
Protocol details: calcium-dependent phosphodiesterase assay in the absence of calmodulin
Format: biochemical
Recorded conditions: Table III
Square brackets hold non-standard residues; d marks the D form. Peptide text beside a SMILES is read from it.
Measured metric: IC50 (µM)

- Compound: "CC[C@@H](C)[C@@H](NC(=O)[C@@H](CCC(N)=O)NC(=O)[C@@H](CC(C)C)NC(C)=O)C(=O)N[C@@H](C(=O)N[C@H](CC(C)C)C(=O)N[C@H](Cc1c[nH]c2ccccc12)C(N)=O)[C@H](C)CC (Ac-[dL][dQ][dI][dI][dL][dW]-NH2)"
  Measured target: "phosphodiesterase"
  Measured metric: "IC50"
  Observed result: 119
- Compound: "CC[C@@H](C)[C@@H](NC(=O)[C@@H](CCCNC(=N)N)NC(=O)[C@@H](Cc1c[nH]c2ccccc12)NC(=O)[C@@H](CC(C)C)NC(C)=O)C(=O)N[C@H](Cc1c[nH]cn1)C(=O)N[C@H](Cc1c[nH]c2ccccc12)C(N)=O (Ac-[dL][dW][dR][dI][dH][dW]-NH2)"
  Measured target: "phosphodiesterase"
  Measured metric: "IC50"
  Observed result: 84

###

Measured target: calmodulin (Homo sapiens, UniProt P0DP23)
Protocol details: calcium-dependent phosphodiesterase assay (calmodulin activity)
Assay type: biochemical
Recorded conditions: Table I; assayed at 75, 50 and 12.5 μM, average of repeated assays; read-out: Average IC50
Square brackets hold non-standard residues; d marks the D form. Peptide text beside a SMILES is read from it.
Measured metric: IC50 (µM)

[1] CC[C@@H](C)[C@@H](NC(=O)[C@@H](CCCNC(=N)N)NC(=O)[C@@H](Cc1c[nH]c2ccccc12)NC(=O)[C@@H](CC(C)C)NC(C)=O)C(=O)N[C@H](Cc1c[nH]cn1)C(=O)N[C@H](CCCNC(=N)N)C(N)=O (Ac-[dL][dW][dR][dI][dH][dR]-NH2)
[2] CC[C@@H](C)[C@@H](NC(=O)[C@@H](CCCNC(=N)N)NC(=O)[C@@H](CCC(N)=O)NC(=O)[C@@H](CC(C)C)NC(C)=O)C(=O)N[C@H](Cc1c[nH]cn1)C(=O)N[C@H](Cc1c[nH]c2ccccc12)C(N)=O (Ac-[dL][dQ][dR][dI][dH][dW]-NH2)
Would you mind telling me which has the lower recorded IC50 between 1 and 2 ? Write the label of whichever entry you select.
1

###

Measured target: calmodulin (Homo sapiens)
Protocol details: calcium-dependent phosphodiesterase assay (calmodulin activity)
Assay type: biochemical
Recorded conditions: Table I; assayed at 75, 50 and 12.5 μM, average of repeated assays; read-out: Average IC50
pIC50: −log10 of the molar value. Square brackets hold non-standard residues; d marks the D form. Peptide text beside a SMILES is read from it.
Measured metric: pIC50

Solved cases below.
- Compound: "CC[C@@H](C)[C@@H](NC(=O)[C@@H](Cc1c[nH]c2ccccc12)NC(=O)[C@@H](CC(C)C)NC(C)=O)C(=O)N[C@@H](C(=O)N[C@H](CC(C)C)C(=O)N[C@H](Cc1c[nH]c2ccccc12)C(N)=O)[C@H](C)CC (Ac-[dL][dW][dI][dI][dL][dW]-NH2)"
  pIC50: 4.44
- Compound: "CC[C@@H](C)[C@@H](NC(=O)[C@@H](CCC(N)=O)NC(=O)[C@@H](CC(C)C)NC(C)=O)C(=O)N[C@H](Cc1c[nH]cn1)C(=O)N[C@H](Cc1c[nH]cn1)C(=O)N[C@H](CCCNC(=N)N)C(N)=O (Ac-[dL][dQ][dI][dH][dH][dR]-NH2)"
  pIC50: 4.70

[P] CC(=O)N[C@H](CC(C)C)C(=O)N[C@H](Cc1c[nH]c2ccccc12)C(=O)N[C@H](CCCNC(=N)N)C(=O)N[C@H](Cc1c[nH]cn1)C(=O)N[C@H](Cc1c[nH]cn1)C(=O)N[C@H](Cc1c[nH]c2ccccc12)C(N)=O (Ac-[dL][dW][dR][dH][dH][dW]-NH2)
[Q] CC[C@@H](C)[C@@H](NC(=O)[C@@H](CCCNC(=N)N)NC(=O)[C@@H](Cc1c[nH]c2ccccc12)NC(=O)[C@@H](CC(C)C)NC(C)=O)C(=O)N[C@H](CC(C)C)C(=O)N[C@H](Cc1c[nH]c2ccccc12)C(N)=O (Ac-[dL][dW][dR][dI][dL][dW]-NH2)
I'd appreciate it if you could identify which of P and Q has the greater pIC50. Write the label of whichever entry you select.
P
